Target: Follistatin (Homo sapiens)
Assay: follistatin binders on small-molecule microarrays, primary screen, biochemical, small-molecule microarray, 635/667 nm fluorescence (AID 1132)
Conditions: FST binding, 635 nm fluorescence, higher = more signal
composite z-score vs 0.7: at or above is true (1), below is false (0).

Solved entries (count: 4):
CC1CC/C=C\[C@H]2OC34C=CCN(Cc5ccccc5)C(=O)[C@H]3N(CCCCCO)C(=O)[C@@H]4C2C(=O)O1 (stereo partly specified) : false (0)
CCOC(=O)C[C@H]1[C@H](OC(=O)c2ccc(-c3ccccc3)cc2)[C@@H](NC(=O)c2ccc(-c3ccccc3)cc2)c2cc(OCCCO)ccc2N1C(=O)Cc1ccc(OC)cc1 : false (0)
C=CCC(OC(C)=O)[C@@H]1[C@@H](N(Cc2ccc(-c3ccccc3)cc2)C(=O)Cc2ccc(F)cc2)c2cc(OCCCO)ccc2N1C(=O)c1ccc2ccccc2n1 (stereo partly specified) : false (0)
COc1ccc([Si](C)(C)[C@H]2[C@H](CC(=O)N(CCO)Cc3ccccc3)O[C@@]3(C(=O)N(Cc4cccc(N5CCC5=O)c4)c4ccccc43)[C@@H]2C)cc1 : true (1)

Task: Quick check: does COCCOC(=O)N1C(=O)[C@@]2(c3ccccc31)[C@H](C(=O)Nc1nc3ccccc3s1)[C@H]1C(=O)O[C@H](c3ccccc3)[C@H](c3ccccc3)N1[C@@H]2c1ccc(OCCO)cc1 have composite z-score greater than or equal to 0.7?
Result: true (1)
